Overview of recorded apparent KD of MS2 coat protein for various sequences
- Test system: MS2 coat protein
- experiment summary: apparent KD of MS2 coat protein; designed switch direction (-1 OFF switch, 1 ON switch): -1; higher = weaker reporter binding
- particulars: input ligand: FMN 200 uM

[
  {
    "sequence code": "GUUAUUUCAGGAUAUACAUGAGGAUCACCCAUGUAAGCAAGGUGCCUGCAUCCCGACUGUAGAAGGGAAAUGAG [Eternabot (L2) Solution 61] (Eterna round: R97, puzzle: Exclusion 3)",
    "apparent KD of MS2 coat protein": "29.9 nM"
  },
  {
    "sequence code": "UGGUCACAUGAGGAUCACCCAUGUCAGGAUAUCGUCACUGGAGCCUCGGCUCCAGUGACGAGAAGGGACAUAAU [E1/6-A2] (Eterna round: R97, puzzle: Exclusion 1)",
    "apparent KD of MS2 coat protein": "267 nM"
  },
  {
    "sequence code": "AUGCGUGGCUAGGAUAUUGAGGAAUUUAGCCAGCAAGAAGGAGCCACAUGAGGAUCACCCAUGUGGUGAACCUC [jl-ex6-4.61 ViennaUCT mod] (Eterna round: R97, puzzle: Exclusion 6)",
    "apparent KD of MS2 coat protein": "13.2 nM"
  },
  {
    "sequence code": "UUUUGGCAUGUAGGAUAUGGGUCCGAUUAGGAUUUAGAAGGACAUGAGGAUCACCCAUGUGCACUUAAUUGGUCUUUUUUUUUU [EXclNG1-LROPPY16] (Eterna round: R96, puzzle: Exclusion NG 1)",
    "apparent KD of MS2 coat protein": "37.7 nM"
  },
  {
    "sequence code": "CCGCUGUCAGGAUAUCGUGCAUACAACGAAAGUUCUAUGUGCGAGAAGGGACAUGAGGAUCACCCAUGUUUGCG [Omei Ex4 A20] (Eterna round: R97, puzzle: Exclusion 4)",
    "apparent KD of MS2 coat protein": "41.3 nM"
  }
]

###

Overview of recorded apparent KD of MS2 coat protein for various sequences
- Test system: MS2 coat protein
- experiment summary: apparent KD of MS2 coat protein; designed switch direction (-1 OFF switch, 1 ON switch): 1; higher = weaker reporter binding
- particulars: input ligand: FMN 200 uM

[
  {
    "sequence code": "AGGGAGGAUGCAGGAUAUACAAGACAUGAGGAUCACCCAUGUACCUUGUGGAGAAGAAAGGAGAGGUAGAAGGGUAGUGAGGAA [Default title] (Eterna round: R96, puzzle: Same State NG 2)",
    "unit abbrev": "nM",
    "apparent KD of MS2 coat protein": 11.7
  },
  {
    "sequence code": "AGGCUCGUGCUAGGAUAUCUAGGAUAUGGACGAGGAUUACCCGAGGAGCAUUAGCCCACCAGAGGAGAGAAGGAGCUACAUGCG [pwkr ssNG2 2F5 2FMN.12] (Eterna round: R96, puzzle: Same State NG 2)",
    "unit abbrev": "nM",
    "apparent KD of MS2 coat protein": 1320
  },
  {
    "sequence code": "GGUCCAGCCUGAGCUGGACUACAGCAUGUACAUGAGGAUCACCCAUGUCAUGUACAUGUUUUUUGUUUGUCUUAAAA [Sensorship 9 - Jieux - Sensor for hsa-mir-208a] (Eterna round: R96, puzzle: Sensor for hsa-mir-208a)",
    "unit abbrev": "nM",
    "apparent KD of MS2 coat protein": 200
  }
]
